B1: NF2 (merlin) isoform 7, human, full length (507 aa, lacks exons 2-3 = isoform-1 residues 39-121; exon-16 C-terminus), P35240-4 (parent)
chain: MAGAIASRMSFSSLKRKQPKTFTVRIVTMDAEMEFNCEVKKQILDEKIYCPPEASVLLASYAVQAKYGDYDPSVHKRGFLAQEELLPKRVINLYQMTPEMWEERITAWYAEHRGRARDEAEMEYLKIAQDLEMYGVNYFAIRNKKGTELLLGVDALGLHIYDPENRLTPKISFPWNEIRNISYSDKEFTIKPLDKKIDVFKFNSSKLRVNKLILQLCIGNHDLFMRRRKADSLEVQQMKAQAREEKARKQMERQRLAREKQMREEAERTRDELERRLLQMKEEATMANEALMRSEETADLLAEKAQITEEEAKLLAQKAAEAEQEMQRIKATAIRTEEEKRLMEQKVLEAEVLALKMAEESERRAKEADQLKQDLQEAREAERRAKQKLLEIATKPTYPPMNPIPAPLPPDIPSFNLIGDSLSFDFKDTDMKRLSMEIEKEKVEYMEKSKHLQEQLNELKTEIEALKLKERETALDILHNENSDRGGSSKHNTIKKPQAQGRRPICI

variants of: B1; test: reverse yeast two-hybrid deep mutational scan (rY2H-seq): NF2 isoform 7 mutant library as bait mated with wild-type prey strains; selection on medium lacking adenine for non-interacting pairs; NextSeq paired-end sequencing; enrichment vs …; settings: with EMILIN1 (elastin microfibril interfacer 1), Q9Y6C2; yeast diploids after mating (RBait_S3 x RPrey_S3), 30 °C, selection for reporter genes on NB agar; human ABL2 co-expressed as the kinase-dead K35M mutant …; HIGHER = WEAKER BINDING (the opposite of display enrichments): higher = stronger loss of interaction: reverse Y2H selects yeast in which bait and prey do NOT interact (growth without adenine), so a …; hits-only table; scale: rY2H score; numbering: uniprot, sequence starts at 1
reported-property: enrichment

Completed entries (count: 6):
residue_change=Q64A numeric_readout=2.42
residue_change=E337K numeric_readout=2.71
residue_change=I507R numeric_readout=1.52
residue_change=G146L numeric_readout=2.08
residue_change=D425A numeric_readout=2.63
residue_change=I334E numeric_readout=2.52

[1] P405E
[2] A378K
[3] R335A
Prompt line: List items by enrichment in falling order. Answer format: the labels, ordered as requested.
Response line: 3, 2, 1

[a] N482K
[b] M292A
Prompt line: Two entries are listed, a and b . Which one carries the higher enrichment? Answer format: the label of the selected item.
Response line: b
(b: 6.8, a: 2.14)

Attribution: paper PMC10244618
